# assayed-target: T1, insulin (UniProt P01308 25-54; P01308 90-110, limits assumed)
# T1 construct: Mature insulin has two chains (A and B) from one precursor; also called b-insulin
# T1 sequence (P01308 25-54 limits assumed, form in doubt, chain 1 of 2): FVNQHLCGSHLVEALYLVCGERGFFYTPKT
# T1 sequence (P01308 90-110 limits assumed, form in doubt, chain 2 of 2): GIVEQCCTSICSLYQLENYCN
# protocol-notes: SPR, Biacore T200; target immobilized on CM5, His6-tagged Y variant injected; 1:1 Langmuir
pKd: −log10 of the molar value.
Output yes for pKd not less than 7; output no otherwise.

• Y02709 (designed binder, Y00358 with I9L) MGSSHHHHHHGSSLAEAKEAALAELDSKGVGAAKIKWIQDAKSVETVQFLKQAILAELPA = no
• Y00274 (designed binder, Y00032 with E35Q) MGSSHHHHHHGSSLAEAKEAAIAELDSKGVGAYQKSFIELAKSVEHVQLLKEAILADLP = yes
• Y02714 (designed binder, Y00310 with Q26E) MGSSHHHHHHGSSLAEAKEAAIAELDSKGVGAYQIKFIEIAHTVEEVQLMKQAILADLPA = no
• Y00275 (designed binder, Y00032 with E39Q) MGSSHHHHHHGSSLAEAKEAAIAELDSKGVGAYQKSFIELAKSVEHVELLKQAILADLP = yes
• Y00296a (designed binder, if it is only 46 residues long, ASYGS must be added at the C-terminus) MGSSHHHHHHGSSLAEAKEAAIAELDSKGVGAYQIKFIQLAKSVEHVQLLKQAILADLPASYGS = yes
